Parameter: EC50, CRE-luciferase assay. Scope: all listed entries.
Molecular target: T1, human amylin receptor (AMY3) on CHO-K1/Ga15/AMY3 cells (human, UniProt P30988 25-474; O60896 24-148)
T1 sequence (looked up) 1: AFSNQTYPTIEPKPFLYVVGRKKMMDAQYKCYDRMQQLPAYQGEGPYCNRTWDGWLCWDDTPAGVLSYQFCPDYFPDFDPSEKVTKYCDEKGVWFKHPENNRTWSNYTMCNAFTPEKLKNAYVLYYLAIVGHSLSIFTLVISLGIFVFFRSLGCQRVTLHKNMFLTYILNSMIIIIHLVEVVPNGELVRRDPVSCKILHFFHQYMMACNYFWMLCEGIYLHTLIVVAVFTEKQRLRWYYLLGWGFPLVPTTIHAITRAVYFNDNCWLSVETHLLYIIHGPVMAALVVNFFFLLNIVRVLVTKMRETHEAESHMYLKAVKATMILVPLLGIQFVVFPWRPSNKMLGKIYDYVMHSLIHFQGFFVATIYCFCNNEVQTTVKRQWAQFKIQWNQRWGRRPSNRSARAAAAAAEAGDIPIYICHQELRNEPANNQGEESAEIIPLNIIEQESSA
T1 sequence (looked up) 2: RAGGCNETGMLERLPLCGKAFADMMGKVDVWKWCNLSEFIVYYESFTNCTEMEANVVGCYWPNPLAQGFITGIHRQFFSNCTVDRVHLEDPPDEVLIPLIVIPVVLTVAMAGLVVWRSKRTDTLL
Test: cell-based or functional assay
*1 amine or outer side, *2 acyl side, *3 side chain or, on linkers, in order; H or OH if unused. Bridges are numbered along the chain shown (N, C = ends). Primed or numbered codes have the meaning given here. Where no end group is shown, it is not given here. Side-chain parts run from the residue outwards. [ ]: non-standard residue; d: D form. The star is where a group is joined. C20 diacid = O=C(O)CCCCCCCCCCCCCCCCCCC(=O)*; C18 diacid = O=C(O)CCCCCCCCCCCCCCCCC(=O)*; γGlu = O=C(O)[C@H](CCC(=O)[*:2])N[*:1]; Hyp = O=C(O)[C@@H]1C[C@@H](O)CN1; Inp′ = not defined here; AEEA = NCCOCCOCC(=O)O

Qu. Name the recorded EC50, CRE-luciferase assay of the binder listed here: {C20 diacid-Inp′-AEEA-AEEA}-KCNTATCATQRLADFLRHSSNNLKPILPPTNVGSNT[Hyp]-NH2 (disulfide 2-7 (inferred)) [PD179]
Ans. 0.017 nM

Qu. Name the recorded EC50, CRE-luciferase assay of the binder listed here: RCNTATCATQRLADFLRHSSNNLK([AEEA-γGlu-C18 diacid])PILPPTNVGSNT[Hyp]-NH2 (disulfide 2-7 (inferred)) [PD108]
Ans. 0.028 nM

Qu. Name the recorded EC50, CRE-luciferase assay of the binder listed here: RCNTATCATQRLADFLRHK([AEEA-AEEA-γGlu-C18 diacid])SNNLGPILPPTNVGSNT[Hyp]-NH2 (disulfide 2-7 (inferred)) [PD101]
Ans. 0.012 nM

Qu. Name the recorded EC50, CRE-luciferase assay of the binder listed here: {C18 diacid-γGlu-AEEA-AEEA}-KCNTATCATQRLADFLRHSSNNLGPILPPTNVGSNT[Hyp]-NH2 (disulfide 2-7 (inferred)) [PD126]
Ans. 0.028 nM
